Counter-ions that a name gives are not always drawn.
ATTRIBUTE MEASURED: melting point

Recorded melting point, per entry:
> print(dat)
                                   molecule  attribute.measured  reported.result
1  CN1CCC(OC(c2cccc(I)c2)c2nc3ccccc3s2)CC1 (centres unmarked) (as salt: oxalate) [Example 41]       melting point    165 to 170 °C
2  CN1CCC(OC(c2nc3ccccc3s2)c2ccccc2F)CC1 (centres unmarked) (as salt: oxalate) [Example 6]       melting point    178 to 179 °C
3  CN1CCC(OC(c2cccc(-c3ccccc3CO)c2)c2nc3ccccc3s2)CC1 (centres unmarked) (as salt: oxalate) [Example 127]       melting point    206 to 207 °C
4  CN1CCC(OC(c2cccc(C#CCO)c2)c2nc3ccccc3[nH]2)CC1 (centres unmarked) [Example 190]       melting point    117 to 120 °C

Turning to the following molecule.
For this molecule ( CN1CCC(NC(c2cccc(I)c2)c2nc3ccccc3s2)CC1 (centres unmarked) (as salt: oxalate) [Example 48] ), measured melting point is 188 to 195 °C

* * *

TEST TARGET: human H4 receptor (Homo sapiens, UniProt Q9H3N8)
Construct: expressed in transfected cells
Sequence (Q9H3N8 whole entry): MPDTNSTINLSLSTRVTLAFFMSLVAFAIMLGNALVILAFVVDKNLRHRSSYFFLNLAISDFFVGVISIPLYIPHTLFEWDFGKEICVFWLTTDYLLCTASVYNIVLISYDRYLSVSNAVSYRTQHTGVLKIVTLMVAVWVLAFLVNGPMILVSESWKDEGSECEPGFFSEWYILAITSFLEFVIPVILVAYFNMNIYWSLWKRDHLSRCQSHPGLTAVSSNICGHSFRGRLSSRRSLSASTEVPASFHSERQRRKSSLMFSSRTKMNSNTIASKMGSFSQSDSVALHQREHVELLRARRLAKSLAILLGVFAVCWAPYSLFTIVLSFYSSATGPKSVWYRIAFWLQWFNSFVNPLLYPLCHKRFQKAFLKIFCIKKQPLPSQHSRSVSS
METHOD: [3H]Histamine binding on membranes of CHO cells stably expressing human H4 receptor
ATTRIBUTE MEASURED: Ki or IC50 activity class

As a guide, the following entries are already answered.
> print(dat)
                                   compound                               test.target  reported.result
1  Cc1cc(F)c(O)c(C(OC2CCN(C)CC2)c2nc3ccccc3[nH]2)c1 (stereo not drawn)  human H4 receptor (Homo sapiens, UniProt Q9H3N8)         < 300 nM
2  CN1CCC(OC(c2cccc(SC(C)(C)CCO)c2)c2nc3ccccc3s2)CC1 (stereo not drawn)  human H4 receptor (Homo sapiens, UniProt Q9H3N8)        < 1000 nM

Recorded result, CN1CCC(OC(c2cccc(C=CCCCN)c2)c2nc3ccccc3[nH]2)CC1 (stereo not drawn) , Ki or IC50 activity class: < 30 nM

Per the records, this compound ( CN1CCC(NC(c2cccnc2)c2nc3ccccc3s2)CC1 (stereo not drawn) ) has Ki or IC50 activity class equal to < 1000 nM

Ki or IC50 activity class in this record for CN1CCC(OC(c2cccc(SCC(=O)NCCN)c2)c2nc3cc(F)ccc3[nH]2)CC1 (stereo not drawn) : < 30 nM

The recorded Ki or IC50 activity class for entry CN1CCC(OC(c2cccc(N3CCC(=O)C3)c2)c2nc3ccccc3s2)CC1 (stereo not drawn) equals < 30 nM

Sure, the documented Ki or IC50 activity class for CN1CCC(NC(c2cccc(OC(F)(F)F)c2)c2nc3ccccc3[nH]2)CC1 (stereo not drawn) is < 30 nM

* * *

Each entry below carries its reported melting point.
Express it in °C; write the number only.

> print(dat)
                                   compound  unit.spec  reported.result
1  CN1CCC(OC(c2cccc(C#CC3CCCNC3)c2)c2nc3ccccc3[nH]2)CC1 (stereo not shown) [Example 380]         °C               97

Value of melting point reported for the compound CN1CCC(OC(c2cccc(Br)c2)c2nc3ccccc3s2)CC1 (stereo not shown) [Example 27] is 99

* * *

Counter-ions that a name gives are not always drawn.
ATTRIBUTE MEASURED: melting point (°C)
Write the number in °C without appending the unit.

> print(dat)
                                   molecule  reported.result
1  CN1CCC(NC(c2cccc(OC(F)(F)F)c2)c2nc3ccccc3[nH]2)CC1 (centres unmarked)               82
2  CN1CCC(OC(c2nc3ccccc3[nH]2)c2cccc(OC(F)(F)F)c2O)CC1 (centres unmarked)              126
3  CN1CCC(NC(c2cccc(C#CCCCCN)c2)c2nc3ccccc3s2)CC1 (centres unmarked) (as salt: oxalate)               80
4  CNCCOc1cccc(C(OC2CCN(C)CC2)c2nc3ccccc3s2)c1 (centres unmarked) (as salt: oxalate)              125

// next entry
Sure, the documented melting point for CN1CCC(OC(c2cccc(SCCNC(=N)NC(=O)OC(C)(C)C)c2)c2nc3ccccc3s2)CC1 (centres unmarked) is 110

* * *

TEST TARGET: human H4 receptor (Homo sapiens)
Construct: expressed in transfected cells
METHOD: [3H]Histamine binding on membranes of CHO cells stably expressing human H4 receptor
Description: CHO cells stably expressing human H4 receptor were grown until sub-confluence and centrifuged at 300 g 15 minutes at 4° C. Pellets were resuspended in buffer I Tris-HCl 50 mM, MgCl2 10 mM, NaCl 140 mM, pH=7.4 supplemented by a 1/50 dilution of a mix of protease inhibitors. […] Protein content is measured by the Bradford method. […] The filter-bound radioactivity was measured in a liquid scintillation counter Microbeta TRILUX® with 50 μl of scintillation fluid. […]
Reported Ki or IC50 activity class by item:

# example entries with known answers
> print(dat)
                                   compound         attribute.measured  reported.result
1  CCCOc1cccc(C(NC2CCN(C)CC2)c2nc3ccccc3s2)c1 (single isomer, unassigned) [Example 57]  Ki or IC50 activity class          < 30 nM
2  CN1CCC(NC(c2cccc(OCCCC(F)(F)F)c2)c2nc3ccccc3[nH]2)CC1 (stereo not drawn)  Ki or IC50 activity class         < 300 nM
3  CN1CCC(OC(c2nc3ccccc3[nH]2)c2cc(C(C)(C)C)ccc2O)CC1 (stereo not drawn)  Ki or IC50 activity class        < 1000 nM
4  CC(=O)NC1CCN(c2cccc(C(OC3CCN(C)CC3)c3nc4ccccc4s3)c2)C1 (stereo not drawn)  Ki or IC50 activity class         < 300 nM
5  CN1CCC(OC(c2cccc(OCc3ccccn3)c2)c2nc3ccccc3[nH]2)CC1 (stereo not drawn)  Ki or IC50 activity class         < 300 nM

// Ki or IC50 activity class value for CN1CCC(OC(c2ccc(Cl)cc2)c2nc3ccccc3s2)CC1 (stereo not drawn) : < 1000 nM

Reported Ki or IC50 activity class for CCSc1cc(C(OC2CCN(C)CC2)c2nc3ccccc3[nH]2)ccc1C (stereo not drawn) was < 300 nM

Entry under test: COc1cccc(C(OC2CCN(C)CC2)c2nc3ccccc3[nH]2)c1O (stereo not drawn) . Its Ki or IC50 activity class was < 300 nM

The value of Ki or IC50 activity class measured for the compound CN1CCC(OC(c2nc3ccccc3[nH]2)c2cc(Cc3ccccc3)ccc2O)CC1 (stereo not drawn) turned out to be < 30 nM

Per the records, this compound ( CN1CCC(OC(c2nc3ccccc3[nH]2)c2cc(I)ccc2F)CC1 (stereo not drawn) ) has Ki or IC50 activity class equal to < 30 nM

Item: CN1CCC(OC(c2cccc(N3CCC(O)(C(F)(F)F)C3)c2)c2nc3ccccc3s2)CC1 (stereo not drawn) | Ki or IC50 activity class: < 1000 nM

Reported Ki or IC50 activity class ( Cc1c(F)ccc(C(OC2CCN(C)CC2)c2nc3ccccc3[nH]2)c1O (stereo not drawn) ) = < 30 nM

GET /value?item= COC(=O)c1cccc(C(OC2CCN(C)CC2)c2nc3ccccc3s2)c1 (stereo not drawn) &field=Ki or IC50 activity class returns < 300 nM

Per the record, CN1CCC(OC(c2cccc(-c3ccc(Cl)c(Cl)c3)c2)c2nc3ccccc3s2)CC1 (stereo not drawn) has Ki or IC50 activity class of < 300 nM

Data point: CN1CCC(OC(c2cccc(OCCCCN3CCN(C(=O)OC(C)(C)C)CC3)c2)c2nc3ccccc3[nH]2)CC1 (stereo not drawn) ; Ki or IC50 activity class = < 300 nM

* * *

The following molecules are shown together with reported Ki or IC50 activity class values.
TEST TARGET: human H4 receptor (Homo sapiens)
Construct: expressed in transfected cells
METHOD: [3H]Histamine binding on membranes of CHO cells stably expressing human H4 receptor

> print(dat)
                                   molecule         attribute.measured  reported.result
1  CCOC(=O)c1cccc(C(OC2CCN(C)CC2)c2nc3ccccc3s2)c1 (stereo not shown) [Example 206]  Ki or IC50 activity class         < 300 nM

# next molecule below
Quick note, Ki or IC50 activity class for CN1CCC(OC(c2nc3ccccc3[nH]2)c2cc(C(C)(C)c3ccccc3)ccc2O)CC1 (stereo not shown) [Example 604] landed at < 300 nM

* * *

Below: a set of entries, each annotated with reported melting point.
Structures can show the parent of a compound that is named as a salt.
Please reply with the bare figure in °C and do not write the unit itself.

The examples below pair each entry with its known result.
> print(dat)
                                   compound  reported.result
1  CN1CCC(OC(c2cccc(OCC=CCO)c2)c2nc3ccccc3s2)CC1 (centres unmarked) (as salt: oxalate)               73
2  CCOCCn1c(C(OC2CCN(C)CC2)c2cccc(I)c2)nc2ccccc21 (centres unmarked) (as salt: oxalate)               88
3  COc1ccc(-c2cccc(C(OC3CCN(C)CC3)c3nc4ccccc4[nH]3)c2)cc1 (centres unmarked)               92
4  CN1CCC(NC(c2cccc(OCc3ccccc3F)c2)c2nc3ccccc3[nH]2)CC1 (centres unmarked) (as salt: oxalate)              118
5  Cc1cc(C(OC2CCN(C)CC2)c2nc3ccccc3s2)ccc1F (centres unmarked) (as salt: oxalate)              120
6  CN1CCC(OC(c2cc(C(F)(F)F)cc(C(F)(F)F)c2)c2nc3ccccc3[nH]2)CC1 (centres unmarked) (as salt: oxalate)              130
7  CN1CCC(OC(c2nc3cc(F)c(F)cc3[nH]2)c2cc(OC(F)(F)F)ccc2F)CC1 (centres unmarked)               79
8  CN1CCC(OC(c2cccc(OCCCN3CCOCC3)c2)c2nc3ccccc3s2)CC1 (centres unmarked) (as salt: oxalate)              105

The recorded melting point for COc1ccc(-c2cccc(C(NC3CCN(C)CC3)c3nc4ccccc4s3)c2)cc1 (centres unmarked) (as salt: oxalate) is 130

The compound identified as CN1CCC(OC(c2cccc(C#CCN)c2)c2nc3ccccc3[nH]2)CC1 (centres unmarked) registered its melting point at 101
